Catalogue of IC50 readings, one per entry.
# System: primary AML specimens
# Assay procedure: Dose-response assays in primary AML specimens (6 days, CellTiterGlo)
# Type: cell-based, human
# Cond: primary AML specimen 08H021; 6 days; read-out: IC50
Write down the value, and be sure its unit follows.

Challenge: Could you share which IC50 value was measured for Cc1cccc(Nc2nc(CC(=O)Nc3ncc(C)s3)cs2)n1 ?
Response given: 1030 nM

Challenge: Which IC50 reading was recorded for the molecule CC[C@H](CO)Nc1nc(NCc2ccc(-c3ccccn3)cc2)c2ncn(C(C)C)c2n1 ?
Response given: 53.6 nM

###

# System: primary AML specimens
# Assay procedure: Dose-response assays in primary AML specimens (6 days, CellTiterGlo)
# Format: cell-based, human
# Cond: primary AML specimen 10H161; 6 days; read-out: IC50
Outcome measure: pIC50
pIC50 field: float, defined as -log10 of concentration (mol/L).

Challenge: Which measured pIC50 value corresponds to CC[C@H](CO)Nc1nc(NCc2ccc(-c3ccccn3)cc2)c2ncn(C(C)C)c2n1 [CR8] ?
Response given: 7.12

Next:
Challenge: Name the reported pIC50 value associated with the molecule Cc1cccc(Nc2nc(CC(=O)Nc3ncc(C)s3)cs2)n1 [HQ461]
Response given: 5.91

###

Recorded IC50 for the following compounds
# Test system: primary AML specimens
# Assay procedure: Dose-response assays in primary AML specimens (6 days, CellTiterGlo)
# Format: cell-based, human
# Cond: Homo sapiens, 144 h, primary AML specimen 10H107; 6 days; read-out: IC50
Answer with the figure and its unit, nothing else.

Challenge: What IC50 value was documented for this compound, Cn1cc(-n2cnc3c(NCc4nc5cc(Cl)c(Cl)cc5[nH]4)nc(N4CCOCC4)nc32)cn1 ?
Response given: 37.1 nM

###

The following compounds are listed with their measured % CDK1 inhibition values.
# Target: CDK1 (Homo sapiens, UniProt P06493)
# Construct: purchased BPS Bioscience 79597
# Sequence (P06493 whole entry): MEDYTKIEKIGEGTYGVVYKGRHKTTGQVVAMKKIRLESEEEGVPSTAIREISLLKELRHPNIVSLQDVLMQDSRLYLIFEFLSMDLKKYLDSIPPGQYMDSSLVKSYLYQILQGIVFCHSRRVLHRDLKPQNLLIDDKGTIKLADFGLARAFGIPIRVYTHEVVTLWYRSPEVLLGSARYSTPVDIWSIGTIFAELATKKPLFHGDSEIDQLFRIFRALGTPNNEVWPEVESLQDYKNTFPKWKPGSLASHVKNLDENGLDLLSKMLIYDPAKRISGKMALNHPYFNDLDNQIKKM
# Sequence (P14635 whole entry partner): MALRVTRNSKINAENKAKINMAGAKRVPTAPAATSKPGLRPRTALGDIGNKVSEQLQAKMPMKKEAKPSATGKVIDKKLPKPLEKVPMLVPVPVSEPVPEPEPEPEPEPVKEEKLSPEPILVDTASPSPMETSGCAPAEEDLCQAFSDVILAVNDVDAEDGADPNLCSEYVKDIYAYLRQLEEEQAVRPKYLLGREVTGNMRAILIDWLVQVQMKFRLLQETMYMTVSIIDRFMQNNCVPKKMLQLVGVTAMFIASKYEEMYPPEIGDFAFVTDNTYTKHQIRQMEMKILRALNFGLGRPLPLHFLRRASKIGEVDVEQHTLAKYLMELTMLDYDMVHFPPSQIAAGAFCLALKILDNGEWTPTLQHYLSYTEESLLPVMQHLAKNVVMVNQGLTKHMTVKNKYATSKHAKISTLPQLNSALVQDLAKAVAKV
# Assay procedure: CDK1 in vitro kinase activity, single concentration 1 μM
# Format: biochemical
# Cond: single concentration 1 μM

Previously resolved entries follow.
Challenge: Give CDK1 (Homo sapiens, UniProt P06493) % CDK1 inhibition for COc1ccc2cc([C@H](C)C(=O)Nc3ncc(SCc4cccnc4)s3)ccc2c1
Response given: 53%

Challenge: Lab note: need % CDK1 inhibition with CDK1 (Homo sapiens, UniProt P06493) for entry O=C(Cc1ccccc1)Nc1ncc(SCc2cccnc2)s1 , please look it up.
Response given: 79%

Challenge: Form: Entry = O=C(Cc1ccc(CNC(=O)OCC2c3ccccc3-c3ccccc32)cc1)Nc1ncc(SCc2cccnc2)s1 | System = CDK1 (Homo sapiens, UniProt P06493) | % CDK1 inhibition = ____
Response given: 100%

Challenge: So what % CDK1 inhibition did CN(C)c1ccc(CC(=O)Nc2ncc(C(C)(C)C)s2)cc1 get with CDK1 (Homo sapiens, UniProt P06493)?
Response given: 1%

New cases:
Challenge: Find % CDK1 inhibition (CDK1 (Homo sapiens, UniProt P06493)) for the entry Cc1cccc(Nc2nc(CC(=O)Nc3ncc(C)s3)cs2)n1
Response given: 0%

###

# System: cyclin KeGFP
# Assay procedure: Cyclin KeGFP reporter system (eGFP/mCherry MFI by flow cytometry);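 also: 10 μM compound for 3 h relative to DMSO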
# Type: cell-based, H. sapiens
# Cond: cyclin K-eGFP reporter
Outcome measure: % degradation cyclin K-eGFP
# answer = value followed by unit

Below are worked cases with known answers.
Challenge: Looking for the measured % degradation cyclin K-eGFP of Cn1cc(-n2cnc3c(NCc4nc5cc(Cl)c(Cl)cc5[nH]4)nc(N4CCOCC4)nc32)cn1 [SR4835] , can you help?
Response given: 84%

Challenge: Which % degradation cyclin K-eGFP reading was recorded for the molecule O=C(Cc1ccc(N2CCCC2)cc1)Nc1ncc(SCc2cccnc2)s1 [UOM-005608] ?
Response given: 77%

Challenge: Query (molecule): O=C(Cc1ccc(NC(=O)c2cccnc2)cc1)Nc1ncc(SCc2cccnc2)s1 [UOM-005475] ; field requested: % degradation cyclin K-eGFP
Response given: 0%

Challenge: Which % degradation cyclin K-eGFP is reported for this molecule? O=C(Cc1ccc(NC(=O)c2ccccn2)cc1)Nc1ncc(SCc2cccnc2)s1 [UOM-005474]
Response given: 5%

Challenge: For the molecule O=C(Cc1ccc(N2CCCCC2)cc1)Nc1ncc(SCc2cccnc2)s1 [UOM-005607] , what % degradation cyclin K-eGFP is on record?
Response given: 30%

Challenge: Name the reported % degradation cyclin K-eGFP value associated with the molecule CN(C)c1ccc(CC(=O)Nc2nc3ccccc3o2)cc1 [UOM-005604]
Response given: 8%

Challenge: Item O=C(Cc1ccc(F)cc1)Nc1ncc(SCc2cccnc2)s1 [UOM-005197] has what recorded % degradation cyclin K-eGFP?
Response given: 24%

Challenge: // returns reported % degradation cyclin K-eGFP for input O=C(Cc1ccc(-c2ccccn2)cc1)Nc1ncc(SCc2cccnc2)s1 [UOM-005636]
Response given: 80%

Challenge: Sample CN(C)c1ccc(CC(=O)Nc2ncc(C(C)(C)C)s2)cc1 [UOM-005605] — what was its % degradation cyclin K-eGFP?
Response given: 76%

Challenge: Which % degradation cyclin K-eGFP reading was recorded for the molecule Cn1cc(CC(=O)Nc2ncc(SCc3cccnc3)s2)c2ccccc21 [UOM-005228] ?
Response given: 23%

New cases:
Challenge: Value lookup for % degradation cyclin K-eGFP; key = C=C(C(=O)Nc1ncc(SCc2cccnc2)s1)c1ccc2c(c1)[nH]c1ccc(Cl)cc12 [UOM-005447]
Response given: 63%

Challenge: Tell me the measured % degradation cyclin K-eGFP of Cc1cccc(Nc2nc(CC(=O)Nc3ncc(C)s3)cs2)n1 [HQ461] , please.
Response given: 79%

Challenge: Please give the measured % degradation cyclin K-eGFP for this molecule: O=C(Cc1ccc2ccccc2c1)Nc1ncc(SCc2cccnc2)s1 [UOM-005428]
Response given: 80%

Challenge: Fill blank: measured % degradation cyclin K-eGFP of the molecule CN(C)c1ccc(CC(=O)Nc2nncs2)cc1 [UOM-005601] is ____.
Response given: 1%

Challenge: Can you share its % degradation cyclin K-eGFP? I mean this molecule: CN(C)c1ccc(CC(=O)Nc2nc3ccccc3s2)cc1 [UOM-005600]
Response given: 29%

###

Here, each record is paired with measured IC50 data.
# Test system: primary AML specimens
# Assay procedure: Dose-response assays in primary AML specimens (6 days, CellTiterGlo)
# Type: cell-based, human
# Cond: primary AML specimen 07H144; 6 days; read-out: IC50
# unit: nM | format: bare number

Challenge: Reported IC50 for Cc1cccc(Nc2nc(CC(=O)Nc3ncc(C)s3)cs2)n1 : what is it?
Response given: 983

Consider now this further compound.
Challenge: Report IC50 for CC[C@H](CO)Nc1nc(NCc2ccc(-c3ccccn3)cc2)c2ncn(C(C)C)c2n1 please.
Response given: 51.9

###

# Target: CDK9/CyclinT (Homo sapiens)
# Construct: purchased BPS Bioscience 79628
# Sequence (P50750 whole entry): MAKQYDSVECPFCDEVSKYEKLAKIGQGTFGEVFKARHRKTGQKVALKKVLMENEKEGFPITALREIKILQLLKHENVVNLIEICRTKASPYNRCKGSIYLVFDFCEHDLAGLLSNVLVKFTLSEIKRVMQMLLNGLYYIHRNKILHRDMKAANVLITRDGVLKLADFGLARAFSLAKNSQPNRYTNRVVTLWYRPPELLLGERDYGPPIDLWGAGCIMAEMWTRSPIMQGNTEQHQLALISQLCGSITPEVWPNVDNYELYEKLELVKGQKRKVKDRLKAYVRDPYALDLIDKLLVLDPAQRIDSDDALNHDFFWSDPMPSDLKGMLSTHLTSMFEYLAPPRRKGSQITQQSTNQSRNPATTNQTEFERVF
# Sequence (O60563 whole entry partner): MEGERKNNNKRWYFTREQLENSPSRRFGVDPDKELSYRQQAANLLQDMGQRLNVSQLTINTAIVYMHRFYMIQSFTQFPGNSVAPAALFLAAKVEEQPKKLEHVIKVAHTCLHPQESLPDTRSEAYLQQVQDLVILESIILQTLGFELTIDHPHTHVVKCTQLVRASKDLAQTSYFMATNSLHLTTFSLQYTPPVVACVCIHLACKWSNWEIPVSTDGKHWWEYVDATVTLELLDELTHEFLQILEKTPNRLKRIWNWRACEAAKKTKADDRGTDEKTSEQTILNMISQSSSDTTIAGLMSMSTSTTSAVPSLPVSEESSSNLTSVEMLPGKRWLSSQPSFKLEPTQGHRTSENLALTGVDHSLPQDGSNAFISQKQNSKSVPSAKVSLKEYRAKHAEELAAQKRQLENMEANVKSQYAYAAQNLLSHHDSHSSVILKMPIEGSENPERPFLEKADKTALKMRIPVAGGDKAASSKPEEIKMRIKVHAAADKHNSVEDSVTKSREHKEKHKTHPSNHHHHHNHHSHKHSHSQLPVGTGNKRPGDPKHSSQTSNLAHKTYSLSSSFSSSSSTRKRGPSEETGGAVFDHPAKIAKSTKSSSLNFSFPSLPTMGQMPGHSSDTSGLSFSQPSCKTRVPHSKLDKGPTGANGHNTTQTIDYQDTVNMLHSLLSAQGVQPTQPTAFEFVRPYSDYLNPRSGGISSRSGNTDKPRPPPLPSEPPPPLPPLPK
# Assay procedure: CDK9/CyclinT in vitro kinase activity, single concentration 1 μM
# Type: biochemical
# Cond: single concentration 1 μM
Lab note: anything with inhibition at 1 µM at or over 80% counts as Satisfied; the rest go in Not satisfied.

Worked examples follow.
Challenge: Dear colleague, could you confirm whether O=C(Cc1ccc(C(F)(F)F)cc1)Nc1ncc(SCc2cccnc2)s1 has inhibition at 1 µM at or above 80%?
Response given: Not satisfied

Challenge: Does inhibition at 1 µM meet or surpass 80% for CC(=O)N1CCN(c2ccc(CC(=O)Nc3ncc(SCc4cccnc4)s3)cc2)CC1 ?
Response given: Satisfied

Challenge: For this compound, is measured inhibition at 1 µM 80% or higher? COC(=O)c1cnc(NC(=O)Cc2ccc(N(C)C)cc2)s1
Response given: Not satisfied

Challenge: inhibition at 1 µM >= 80% for CN(C)c1ccc(CC(=O)Nc2nc3ccccc3[nH]2)cc1 ?
Response given: Not satisfied

Pending compound:
Challenge: Does the compound O=C(Cc1coc2cc3c(cc12)CCC3)Nc1ncc(SCc2cccnc2)s1 have recorded inhibition at 1 µM that is 80% or more?
Response given: Satisfied

###

// reported IC50 per item
# Test system: OCI-AML5 cells expressing shRNAs targeting CDK1, 2, 4, 7, 9, cyclin K
# Assay procedure: Dose response in OCI-AML5 expressing shRNAs targeting CDK1, 2, 4, 7, 9, cyclin K or control
# Assay type: cell-based, H. sapiens
# Cond: Homo sapiens, OCI-AML-5, OCI-AML5 expressing shRNA CDK4; read-out: IC50 shRNA CDK4
The figure you give is taken to be in µM; do not add the unit.

Challenge: Query (molecule): O=C(Cc1ccc(NC(=O)c2ccccc2)cc1)Nc1ncc(SCc2cccnc2)s1 ; field requested: IC50
Response given: 1.05

Others:
Challenge: Dear colleague, I am looking for the recorded IC50 of the following molecule: O=C(Cc1ccc(NC(=O)c2ccccn2)cc1)Nc1ncc(SCc2cccnc2)s1
Response given: 1.07

Challenge: // IC50 lookup, key: O=C(Cc1ccc(C(F)(F)F)cc1)Nc1ncc(SCc2cccnc2)s1
Response given: 3.59

Challenge: Please give the measured IC50 for this molecule: O=C(Cc1cc(F)ccc1Br)Nc1ncc(SCc2cccnc2)s1
Response given: 5.28

Challenge: Name the reported IC50 value associated with the molecule O=C(Cc1ccc(NC(=O)c2cccnc2)cc1)Nc1ncc(SCc2cccnc2)s1
Response given: 0.709

Challenge: For the molecule O=C(Cc1ccc(-c2ccncc2)cc1)Nc1ncc(SCc2cccnc2)s1 , what IC50 is on record?
Response given: 0.897

Challenge: Fill in: IC50 of Cc1ccc(CC(=O)Nc2ncc(SCc3cccnc3)s2)cc1 is ___
Response given: 3.72
